# assay_method_text: Activity at Smo in mouse C3H10T1/2 cells assessed as induction of cell differentiation into osteoblast incubated for 6 days by alkaline phosphatase assay
property_name: log10(EC50) (log10 of the value in nM)
For clarity, the numbers are log10 values of EC50 expressed in nM.

Look over these answered cases.
CCCOC(=O)c1ccc(NC(=O)c2c(O)c3cc(F)ccc3n(CCC)c2=O)cc1 : 3.38
CCCCCCn1c(=O)c(C(=O)Nc2ccc(C(=O)OC(C)(C)C)cc2)c(O)c2ccccc21 : 3.49
CCCOC(=O)c1ccc(NC(=O)c2c(O)c3ccccc3n(CCC)c2=O)cc1 : 3.41
CCCOC(=O)c1ccc(NC(=O)c2c(O)c3cc(C)ccc3n(CCC)c2=O)cc1 : 3.08
CCCCn1c(=O)c(C(=O)Nc2ccc(C(=O)OCCC)cc2)c(O)c2ccccc21 : 2.90
CCCCCCn1c(=O)c(C(=O)Nc2ccc(C(=O)OCCCC)cc2)c(O)c2ccccc21 : 3.18
CCCOC(=O)c1ccc(NC(=O)c2c(O)c3cc(OC)c(OC)cc3n(CCC)c2=O)cc1 : 2.56
CCCCCCn1c(=O)c(C(=O)Nc2ccc(C(=O)NCCCC)cc2)c(O)c2ccccc21 : 3.76
CCCCCn1c(=O)c(C(=O)Nc2ccc(C(=O)OCCCC)cc2)c(O)c2ccccc21 : 2.78

Problem: So what does the record say about log10(EC50) for "CCCCCn1c(=O)c(C(=O)Nc2ccc(C(=O)OCC)cc2)c(O)c2ccccc21" ?
Result: 2.95

###

# assay_method_text: Agonist activity at Smo in mouse C3H10T1/2 cells assessed as induction of cell differentiation into osteoblast incubated for 6 days by alkaline phosphatase assay
property_name: EC50 (nM)
// units = nM; emit number, no label

Problem: So what does the record say about EC50 for CNC1CCC(N(Cc2cccc(-c3ccncc3)c2)C(=O)c2sc3ccccc3c2Cl)CC1 (stereo unspecified) ?
Result: 130

###

# assay_method_text: Activity at Smo in mouse C3H10T1/2 cells assessed as induction of cell differentiation into osteoblast incubated for 6 days by alkaline phosphatase assay
property_name: pEC50
Units for pEC50: none; it is -log10 of a concentration expressed in mol/L.

Look over these answered cases.
CCCCCCn1c(=O)c(C(=O)Nc2ccc(C(=O)OCC)cc2)c(O)c2ccccc21 : 5.44
CCCOC(=O)c1ccc(NC(=O)c2c(O)c3cc(Cl)ccc3n(CCC)c2=O)cc1 : 5.31
c1ccc2c(Oc3nc(Nc4ccc(N5CCOCC5)cc4)c4ncn(C5CCCCC5)c4n3)cccc2c1 : 6.10
C=CCn1c(=O)c(C(=O)Nc2ccc(C(=O)OCCC)cc2)c(O)c2ccccc21 : 5.47

# context switch: different compound, same pEC50
Problem: So what does the record say about pEC50 for "CCCCCCn1c(=O)c(C(=O)Nc2ccc(C(=O)O)cc2)c(O)c2ccccc21" ?
Result: 6.22

###

# assay_method_text: Activity at Smo in mouse C3H10T1/2 cells assessed as induction of cell differentiation into osteoblast incubated for 6 days by alkaline phosphatase assay
property_name: EC50 (µM)
// units = µM; emit number, no label

Look over these answered cases.
CCCCCn1c(=O)c(C(=O)Nc2ccc(C(=O)OCCC)cc2)c(O)c2ccccc21 : 0.7
CCCCCCn1c(=O)c(C(=O)Nc2ccc(C(=O)OC(C)C)cc2)c(O)c2ccccc21 : 6.5
CCCCCCn1c(=O)c(C(=O)Nc2ccc(C(=O)OCc3ccccc3)cc2)c(O)c2ccccc21 : 2
CCCOC(=O)c1ccc(NC(=O)c2c(O)c3cccc4c3n(c2=O)CCC4)cc1 : 0.8

# context switch: different compound, same EC50
Problem: So what does the record say about EC50 for "CCCCCCn1c(=O)c(C(=O)Nc2ccc(C(=O)OCCC)cc2)c(O)c2ccccc21" ?
Result: 1.2
